studyTarget: prefusion conformation-stabilized SARS-CoV-2 spike ectodomain (S2Pecto) protein (SARS-CoV-2, UniProt P0DTC2 14-1213; P10104 458-484)
experimentNotes: ELISA, purified IgG
quantityKind: OD 450 nm (OD 450 nm)
Answers are plain numbers, in OD 450 nm.

Past entries and their recorded results:
>  <binder>
COV2-2132 (antibody, V domains shown) VH: EVQLVESGGGLIQPGGSLRLSCAASEVTVSSNYMSWVRQAPGKGLEWVSLIYSGGTTYYADSVKGRFTISRDNSKNTLYLQMNSLRAEDTAVYYCARDFLRWHDLWGQGTLVTVSS VL: DIQMTQSPSSLSASVGDRVTITCQASQDINNYLNWYQQKPGKAPKLLIYDASNLETGVPLRFSGSGSGTDFTFTISSLQPEDIATYYCQQYDNLPPVFGGGTKVEIK

>  <quantityKind>
OD 450 nm

>  <measValue>
4.4

$$$$
>  <binder>
COV2-2103 (antibody, V domains shown) VH: EVQLVESGGGLVQPGGSLRLSCAASGFTFSRHWMTWVRQAPGKGLEWVANIKQDGSEKYYVDSVKGRLTISRDNAKNSLYLQMNSLRAEDTAVYYCARLGFYYGGADYWGQGTLVTVSS VL: NFMLTQPHSVSESPGKTVTISCTGSSGSIASNYVQWYQQRPGSAPTTVISEDNQRPSGVPDRFSGSIDSSSNSASLTISGLKTEDEADYYCQSYDGINRAWVFGGGTKLTVL

>  <quantityKind>
OD 450 nm

>  <measValue>
4.3

$$$$
>  <binder>
COV2-2046 (antibody, V domains shown) VH: EVQLVESGGGLVQPGRSLRLSCAASGFTFDDYAMHWVRQAPGKGLEWVSGISWNSGSIAYTDSVKGRFTISRDNAKNSLYLQMNSLRAEDTALYYCAKAHSTGHQYYYGMDVWGQGTTVTVSS VL: DIQMTQSPSSLSASVGDRVTITCRASQSISSFLNWYQQKPGKAPKLLIYAAFNLQSGVPSRFSGSGSGTDFTLTISSLQSEDFATYYCQQSYNTPYTFGQGTKLEIK

>  <quantityKind>
OD 450 nm

>  <measValue>
4.3

$$$$

From here, focus on the item given below.
## Task Name the recorded OD 450 nm for COV2-2082 (antibody, V domains shown) VH: EVQLVESGGGVVRPGGSLRLSCAASGFIFDDYDMTWVRQAPGKGLEWVSGISWNGGNTGYADSVKGRFTISRDNAKNSLYLQMNSLRAEDTALYHCAVIMSPIPRYSGYDWAGGAFDIWGQGTMVTVSS VL: SSELTQDPAVSVALGQTVRITCQGDSLRSYYASWYQQKPGQVPILVIYDKNNRPSGIPDRFSGSSSGNTASLTITGAQAEDEADYYCNSRDSSGNAVVFGGGTKLTVL .
## Result 4.3
